assay_target: Trypanosoma brucei REL1 (Trypanosoma brucei brucei)
Construct: made in house; host or cells: Escherichia coli BL21 (DE3), polycistronic pET-21d construct
Sequence (P86926 51-469): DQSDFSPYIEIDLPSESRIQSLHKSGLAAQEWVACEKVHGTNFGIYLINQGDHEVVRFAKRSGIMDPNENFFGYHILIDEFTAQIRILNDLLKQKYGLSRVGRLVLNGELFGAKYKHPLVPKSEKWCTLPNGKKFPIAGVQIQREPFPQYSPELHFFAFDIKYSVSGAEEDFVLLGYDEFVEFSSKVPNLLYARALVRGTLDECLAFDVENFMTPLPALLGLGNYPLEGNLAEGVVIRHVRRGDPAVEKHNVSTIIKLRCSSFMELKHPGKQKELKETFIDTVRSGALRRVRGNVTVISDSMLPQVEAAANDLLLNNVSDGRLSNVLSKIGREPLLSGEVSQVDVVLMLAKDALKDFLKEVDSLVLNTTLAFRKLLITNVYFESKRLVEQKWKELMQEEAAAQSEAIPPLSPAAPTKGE
measurement_description: biochemical
Assay type: biochemical
condition_label: read-out: Inhibition at 10 μM
Structures can show the parent of a compound that is named as a salt.
Inhibition at 10 μM for assorted molecules

molecule: Nc1nc(Cl)nc2c1ncn2[C@@H]1O[C@H](COP(=O)(O)OP(=O)(O)OP(=O)(O)O)[C@@H](O)[C@H]1O
assay_target: Trypanosoma brucei REL1 (Trypanosoma brucei brucei)
Inhibition at 10 μM, %: 18
//
molecule: O=c1c(O)c(-c2cc(O)c(O)c(O)c2)oc2cc(O)cc(O)c12 [Myricetin]
assay_target: Trypanosoma brucei REL1 (Trypanosoma brucei brucei)
Inhibition at 10 μM, %: 100
//
molecule: CSc1nc(N)c2ncn([C@@H]3O[C@H](COP(=O)(O)OP(=O)(O)O)[C@@H](O)[C@H]3O)c2n1
assay_target: Trypanosoma brucei REL1 (Trypanosoma brucei brucei)
Inhibition at 10 μM, %: 22
//
molecule: Cc1ccc(C(=O)Nc2ccc(S(=O)(=O)O)c3cc(S(=O)(=O)O)cc(S(=O)(=O)O)c23)cc1NC(=O)c1cccc(NC(=O)Nc2cccc(C(=O)Nc3cc(C(=O)Nc4ccc(S(=O)(=O)O)c5cc(S(=O)(=O)O)cc(S(=O)(=O)O)c45)ccc3C)c2)c1 [Suramin sodium salt]
assay_target: Trypanosoma brucei REL1 (Trypanosoma brucei brucei)
Inhibition at 10 μM, %: 66
//
molecule: CC1(C)CCC2=C(O1)c1ccccc1C(=O)C2=O [β-Lapachone]
assay_target: Trypanosoma brucei REL1 (Trypanosoma brucei brucei)
Inhibition at 10 μM, %: 48
//
molecule: CC(C)NC(C)Cc1ccc(I)cc1 (centres unmarked) [Iofetamine hydrochloride]
assay_target: Trypanosoma brucei REL1 (Trypanosoma brucei brucei)
Inhibition at 10 μM, %: 70
//
molecule: Cn1c(=O)c2[nH]c(-c3ccc(S(=O)(=O)O)cc3)nc2n(C)c1=O [8-(p-Sulfophenyl)theophylline hydrate]
assay_target: Trypanosoma brucei REL1 (Trypanosoma brucei brucei)
Inhibition at 10 μM, %: 23
//
molecule: NC(N)=NOCC[C@H](N)C(=O)O [L-Canavanine]
assay_target: Trypanosoma brucei REL1 (Trypanosoma brucei brucei)
Inhibition at 10 μM, %: 46

// provenance: paper PMC4756849
